Provenance of the data: patent US20120065123A1

molecular target: transferrin; assay: peptide microarray, rank by score; with organic prewash
Sequence (P02787 20-698): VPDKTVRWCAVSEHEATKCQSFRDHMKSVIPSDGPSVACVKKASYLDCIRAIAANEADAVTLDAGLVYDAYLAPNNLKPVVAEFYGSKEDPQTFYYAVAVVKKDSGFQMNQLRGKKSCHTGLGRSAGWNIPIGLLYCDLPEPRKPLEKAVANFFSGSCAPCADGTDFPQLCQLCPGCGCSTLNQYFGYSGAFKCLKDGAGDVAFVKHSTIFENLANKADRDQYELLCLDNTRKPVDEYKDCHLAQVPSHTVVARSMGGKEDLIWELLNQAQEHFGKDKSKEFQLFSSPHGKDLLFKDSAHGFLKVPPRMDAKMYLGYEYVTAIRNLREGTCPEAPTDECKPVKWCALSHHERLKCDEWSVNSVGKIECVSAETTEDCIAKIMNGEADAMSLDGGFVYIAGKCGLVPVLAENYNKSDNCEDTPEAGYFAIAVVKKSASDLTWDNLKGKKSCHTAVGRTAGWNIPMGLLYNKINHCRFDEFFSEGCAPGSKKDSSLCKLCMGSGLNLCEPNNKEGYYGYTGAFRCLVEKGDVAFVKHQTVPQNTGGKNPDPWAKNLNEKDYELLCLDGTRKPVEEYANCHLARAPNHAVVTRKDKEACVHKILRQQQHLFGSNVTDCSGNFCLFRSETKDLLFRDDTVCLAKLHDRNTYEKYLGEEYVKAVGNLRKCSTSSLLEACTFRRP
attributeMeasured: Rank -- prewash (rank)

Observe how each entry below is paired with its result.
AHKVVPQRQIRHAYNRYGSC [TRF26]    436
FRGWAHIFFGPHVIYRGGSC [TRF23]    2090
SVKPWRPLLTGNRWLNSGSC [TRF24]    958
GQTQFAMHRFQQWYKIKGSC [TRF20]    289
LDPLFNTSIMVNWHRWMGSC [TRF27]    3320
APYAPQQIHYWSTLGFKGSC [TRF25]    603

P. KEDNPGYSSEQDYNKLDGSC [TRF19]
Q. QYHHFMNLKRQGRAQAYGSC [TRF21]
R. HAYKGPGDMRRFNHSGMGSC [TRF22]
Rank the 3 binders: largest Rank -- prewash first, smallest last. I'd appreciate it if you listed the labels in the requested order.
P, R, Q
